The values you see were collected from patent US12122786B2.

system-under-test: UniProtKB P71615
test-description: Kinetics study (Dixon plot) by coralyne assay
Type: biochemical
protocol-conditions: 50 nM MTB CdnP, 30° C., read-out: apparent inhibition constant
pKi: −log10 of the molar value.
measure-name: pKi

[[record]]
compound = "CCc1cc2c(=O)n(CC(=O)Nc3ccccc3OC)cnc2s1 [Compound C82]"
test_result = "~5.10"


###

system-under-test: MTB CdnP (Mycobacterium tuberculosis, UniProt P71615)
Sequence (P71615 whole entry): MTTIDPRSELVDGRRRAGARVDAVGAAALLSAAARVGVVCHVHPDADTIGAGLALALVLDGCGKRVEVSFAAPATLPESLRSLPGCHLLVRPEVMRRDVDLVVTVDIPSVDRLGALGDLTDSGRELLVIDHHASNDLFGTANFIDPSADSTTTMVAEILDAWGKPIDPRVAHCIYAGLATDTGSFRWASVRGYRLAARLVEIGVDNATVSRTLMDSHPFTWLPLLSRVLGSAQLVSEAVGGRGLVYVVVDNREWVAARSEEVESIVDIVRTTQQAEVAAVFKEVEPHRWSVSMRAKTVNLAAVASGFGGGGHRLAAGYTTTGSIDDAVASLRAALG
measure-name: IC50 (µM)

[[record]]
molecule = "CCc1cc2c(=O)n(CC(=O)Nc3ccccc3OC)cnc2s1 [Compound C82]"
measure_name = "IC50"
test_result = 17.4

